Test: Half life in human liver microsomes at 0.1 uM after 60 mins in presence of NADPH by LC-MS/MS analysis
Type: ADME, microsome

{"smiles input": "C=CC(=O)Nc1cccc(-n2c(=O)n(C(C)C)c(=O)c3cnc(Nc4ccc(N5CCN(C)CC5)cc4OC)nc32)c1", "unit text": "h", "half-life at 0.1 µM": 1.42}

---

Biological target: Cytochrome P450 2C9 (Homo sapiens)
Sequence (P11712 whole entry): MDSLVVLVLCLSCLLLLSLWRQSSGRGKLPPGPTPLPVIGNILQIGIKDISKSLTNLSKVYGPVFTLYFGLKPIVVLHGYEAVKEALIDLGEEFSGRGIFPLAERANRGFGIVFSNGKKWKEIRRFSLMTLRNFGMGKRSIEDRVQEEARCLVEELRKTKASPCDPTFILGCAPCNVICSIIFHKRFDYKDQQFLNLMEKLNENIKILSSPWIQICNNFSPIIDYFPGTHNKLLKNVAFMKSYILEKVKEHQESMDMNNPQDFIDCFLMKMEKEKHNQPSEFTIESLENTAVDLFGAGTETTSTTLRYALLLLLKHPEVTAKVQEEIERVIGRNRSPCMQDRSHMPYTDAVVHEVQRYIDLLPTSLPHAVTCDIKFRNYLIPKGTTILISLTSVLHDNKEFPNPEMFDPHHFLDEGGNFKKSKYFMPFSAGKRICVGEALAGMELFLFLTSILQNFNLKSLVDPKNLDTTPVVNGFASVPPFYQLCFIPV

{"smiles input": "C=CC(=O)Nc1cccc(-n2c(=O)n(C(C)C)c(=O)c3cnc(Nc4ccc(N5CCN(C)CC5)cc4OC)nc32)c1", "assay target": "Cytochrome P450 2C9 (Homo sapiens)", "IC50": "> 50 µM"}
